Reference for the values: patent US5811533

System name: VEGF165 (recombinant human vascular endothelial growth factor, 165 aa form) (Homo sapiens, UniProt P15692-4 P15692-4:27-191)
Sequence (P15692 other isoform, or with tags, fused parts or gaps): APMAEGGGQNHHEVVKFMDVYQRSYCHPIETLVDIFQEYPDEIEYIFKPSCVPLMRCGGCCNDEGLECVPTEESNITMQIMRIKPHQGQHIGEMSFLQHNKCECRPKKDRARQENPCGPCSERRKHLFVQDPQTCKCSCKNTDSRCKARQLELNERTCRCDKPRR
Experiment: FP filter; nitrocellulose filter; Kd1, X1 0.62, Kd2 ~100 nM
Measurement context: tags: gift from N. Ferrara, Genentech; chain copies: 2 (dimer, stated)
pKd: −log10 of the molar value.

Binder | pKd
17B (ssRNA, 2'-NH2 pyrimidines) RNA: GGGAGGACGAUGCGGCGCUGUGUUCAAUGCGGGGAUCGGGCCGGAGGAUGAACAAAUGGCGGGUCAGACGACUCGCCCGA | 10.55
